- protocolNotes: self-splicing fitness, log relative to wild type (ln ratio); higher = more splicing; Tetrahymena group I intron in knt gene, E. coli kanamycin selection, DiMSum; sequences stand for … in CUCUCU…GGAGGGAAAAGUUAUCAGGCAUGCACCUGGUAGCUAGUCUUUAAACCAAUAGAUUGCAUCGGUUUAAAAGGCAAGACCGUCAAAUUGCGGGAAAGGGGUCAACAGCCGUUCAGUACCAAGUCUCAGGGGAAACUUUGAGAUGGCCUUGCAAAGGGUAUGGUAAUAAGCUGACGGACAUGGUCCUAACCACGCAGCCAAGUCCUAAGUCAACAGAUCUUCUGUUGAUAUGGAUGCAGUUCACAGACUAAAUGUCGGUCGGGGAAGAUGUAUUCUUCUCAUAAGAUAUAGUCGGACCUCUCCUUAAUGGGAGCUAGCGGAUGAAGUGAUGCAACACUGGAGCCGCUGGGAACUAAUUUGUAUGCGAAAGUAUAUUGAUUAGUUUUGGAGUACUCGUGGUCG;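 also: selection with 25 µg/mL kanamycin versus none on LB agar overnight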
- conditions: 37 °C

| seq | self-splicing fitness (ln) |
| --- | --- |
| CUCGAGCAAUAUUACGUAUC | -2.78 |
| GCCUAGCAAUAUUACGGGCA | -1.61 |
| ACUCAGCAAUAUUACGGCGC | 0.000506 |
| GCGAAGCAAUAUUACGAGGA | -1.58 |
| UGAUAGCAAUAUUACGCUCU | 0.193 |
| GCCUAGCAAUAUUACGAUUU | -1.34 |
| CUCGAGCAAUAUUACGUCGA | -1.67 |
| UGCCAGCAAUAUUACGGCUG | -2.17 |
| GCGAAGCAAUAUUACGCUAU | -1.25 |
| UGUGAGCAAUAUUACGACGC | -2.67 |
| UUUUAGCAAUAUUACGAAGU | -1.65 |
| UGCAAGCAAUAUUACGUAAA | -1.01 |
| UACCAGCAAUAUUACGAAAA | -1.11 |
| UACAAGCAAUAUUACGAUUA | 0.278 |
| ACAUAGCAAUAUUACGCUUC | -1.82 |
| UCUAAGCAAUAUUACGACGG | 0.286 |
| AAUGAGCAAUAUUACGUUCA | -0.27 |
| AACUAGCAAUAUUACGCGGU | -0.982 |
| CGACAGCAAUAUUACGUGCU | -3.46 |
| UCUAAGCAAUAUUACGGCAC | -2.85 |
| CGCGAGCAAUAUUACGAUGG | -1.2 |
| AUAUAGCAAUAUUACGGUAA | -0.869 |
| CCACAGCAAUAUUACGAACA | -2.33 |
| UGGUAGCAAUAUUACGUAGG | -1.35 |
| AUUGAGCAAUAUUACGUUUA | -2.98 |
| UUUUAGCAAUAUUACGCGAG | -0.226 |
| GUCGAGCAAUAUUACGUAUA | -1.63 |
| GUUAAGCAAUAUUACGAUGA | 0.18 |
| AAUCAGCAAUAUUACGAGUA | 0.415 |
| GUCCAGCAAUAUUACGUUUA | -0.0697 |
| CGUUAGCAAUAUUACGCUUA | -1.86 |
| ACUUAGCAAUAUUACGUCGG | -1.59 |
| GAUGAGCAAUAUUACGAUAG | -2.42 |
| AGGCAGCAAUAUUACGGCAA | -1.11 |
| GGAUAGCAAUAUUACGAGGC | -2.43 |
| GACGAGCAAUAUUACGAUCG | -2.03 |
| GACAAGCAAUAUUACGGGUG | -0.733 |
| CACGAGCAAUAUUACGAGUU | -2.2 |
| GCCCAGCAAUAUUACGGGGG | -2.78 |
| UCCGAGCAAUAUUACGGCCA | -0.233 |
| ACCGAGCAAUAUUACGCAUA | -2.57 |
| UCUUAGCAAUAUUACGCGAU | -3.67 |
| GUAUAGCAAUAUUACGUAAU | -0.699 |
| ACCUAGCAAUAUUACGCGUC | -0.412 |
| ACGGAGCAAUAUUACGGGGU | -1.45 |
| CUUCAGCAAUAUUACGGUCG | -0.155 |
| CCUUAGCAAUAUUACGCUAG | -2.04 |
| AAAGAGCAAUAUUACGAUUA | -0.939 |
| CCGAAGCAAUAUUACGCGAU | -1.93 |
| CGCGAGCAAUAUUACGACAC | -1.36 |
| CAAAAGCAAUAUUACGGCGU | -0.3 |
| UCAUAGCAAUAUUACGUGUA | -1.84 |
| CGACAGCAAUAUUACGCUGG | -2.1 |
| CCUCAGCAAUAUUACGCGAC | -2.08 |

###

- protocolNotes: self-splicing fitness, log relative to wild type (ln ratio); higher = more splicing; Tetrahymena group I intron in knt gene, E. coli kanamycin selection, DiMSum; sequences stand for … in CUCUCU…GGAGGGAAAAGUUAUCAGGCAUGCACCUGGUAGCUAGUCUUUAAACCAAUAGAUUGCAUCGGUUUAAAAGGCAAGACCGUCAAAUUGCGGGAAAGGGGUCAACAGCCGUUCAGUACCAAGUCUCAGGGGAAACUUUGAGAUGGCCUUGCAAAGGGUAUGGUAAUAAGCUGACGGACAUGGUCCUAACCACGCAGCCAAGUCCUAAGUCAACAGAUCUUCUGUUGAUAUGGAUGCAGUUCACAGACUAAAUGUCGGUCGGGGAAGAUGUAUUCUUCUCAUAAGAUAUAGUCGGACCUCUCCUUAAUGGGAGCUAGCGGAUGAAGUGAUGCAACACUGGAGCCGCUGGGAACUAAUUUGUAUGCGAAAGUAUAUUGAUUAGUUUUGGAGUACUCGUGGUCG
- conditions: 37 °C

| seq | self-splicing fitness (ln) |
| --- | --- |
| UAGGAGCAAUAUUACGAUAG | -1.95 |
| ACGUAGCAAUAUUACGACCC | 0.196 |
| AUUGAGCAAUAUUACGUACC | -1.17 |
| CCUUAGCAAUAUUACGUCUU | -2.61 |
| GAUGAGCAAUAUUACGUGGA | -2.5 |
| CGCGAGCAAUAUUACGAAAG | -1.65 |
| CCCCAGCAAUAUUACGCUUU | -3.36 |
| CUUAAGCAAUAUUACGCCAU | -2.35 |
| AUACAGCAAUAUUACGAACA | 0.157 |
| CGUGAGCAAUAUUACGGACU | -0.345 |
| GUGUAGCAAUAUUACGGUAG | -1.58 |
| CCCUAGCAAUAUUACGGGAA | -3.08 |
| GAUGAGCAAUAUUACGCCGG | -2.46 |
| UCCAAGCAAUAUUACGGGCC | -1.72 |
| UGUAAGCAAUAUUACGCCAC | -2.65 |
| AUACAGCAAUAUUACGGGGC | -3.57 |
| CAUAAGCAAUAUUACGAUCC | -2.71 |
| UUACAGCAAUAUUACGGACC | -1.41 |
| UACAAGCAAUAUUACGCGAC | -1.5 |
| CUGAAGCAAUAUUACGGUAU | -2.54 |
| CCAUAGCAAUAUUACGUCUG | -0.687 |
| GCCGAGCAAUAUUACGUUAC | -2.3 |
| GCAAAGCAAUAUUACGAAAG | -1.94 |
| CGGCAGCAAUAUUACGGCAA | -1.27 |
| AGGUAGCAAUAUUACGGCAU | 0.107 |
| ACCAAGCAAUAUUACGCAAU | -1.04 |
| GGUAAGCAAUAUUACGGACG | 0.484 |
| GGACAGCAAUAUUACGGUGU | -1.89 |

###

Each entry below carries its recorded self-splicing fitness (ln).
- protocolNotes: self-splicing fitness, log relative to wild type (ln ratio); higher = more splicing; Tetrahymena group I intron in knt gene, E. coli kanamycin selection, DiMSum; sequences stand for … in CUCUCU…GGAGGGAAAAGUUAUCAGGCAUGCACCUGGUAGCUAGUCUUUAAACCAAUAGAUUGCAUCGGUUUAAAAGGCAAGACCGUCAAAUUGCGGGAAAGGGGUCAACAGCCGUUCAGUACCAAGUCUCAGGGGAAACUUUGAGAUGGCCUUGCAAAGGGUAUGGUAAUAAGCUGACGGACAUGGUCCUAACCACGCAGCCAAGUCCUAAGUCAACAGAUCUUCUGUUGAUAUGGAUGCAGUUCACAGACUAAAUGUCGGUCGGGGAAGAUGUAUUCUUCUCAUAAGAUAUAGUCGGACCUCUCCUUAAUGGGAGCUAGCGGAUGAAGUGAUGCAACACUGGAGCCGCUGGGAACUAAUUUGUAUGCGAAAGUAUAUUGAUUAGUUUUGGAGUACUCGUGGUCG
- conditions: 30 °C

| seq | self-splicing fitness (ln) |
| --- | --- |
| CGAAAGCAAUAUUACGUAAU | -4.18 |
| AGGAAGCAAUAUUACGCUAU | -3.03 |
| ACGCAGCAAUAUUACGAACG | -0.387 |
| CAUGAGCAAUAUUACGGCCG | -1.25 |
| UGUCAGCAAUAUUACGCCGU | -1.42 |
| CGAUAGCAAUAUUACGCUGG | -0.585 |
| GAUAAGCAAUAUUACGAGUA | -1.84 |
| GCCGAGCAAUAUUACGUGAC | -2.14 |

Values compiled from the supplement of paper PMC7877785.
